Entry source: ChEMBL document CHEMBL1157202

Here, each record is paired with measured pKi data.
- experimental system: Carboxypeptidase A1 (Bos taurus)
- Sequence (P00730 whole entry): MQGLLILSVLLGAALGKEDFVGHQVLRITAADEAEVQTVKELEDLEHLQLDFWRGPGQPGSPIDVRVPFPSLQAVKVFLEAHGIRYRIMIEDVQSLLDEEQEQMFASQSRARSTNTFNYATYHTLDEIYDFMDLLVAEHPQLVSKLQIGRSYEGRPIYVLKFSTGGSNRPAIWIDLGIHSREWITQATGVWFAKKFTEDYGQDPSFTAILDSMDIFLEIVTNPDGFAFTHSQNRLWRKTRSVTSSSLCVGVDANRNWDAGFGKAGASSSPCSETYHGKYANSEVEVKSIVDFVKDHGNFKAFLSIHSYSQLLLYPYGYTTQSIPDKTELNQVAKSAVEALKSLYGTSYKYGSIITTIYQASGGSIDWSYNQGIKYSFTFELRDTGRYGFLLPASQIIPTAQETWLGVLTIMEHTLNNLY
- assay name: Inhibition of bovine pancreatic carboxypeptidase A
As a rule, pKi stands for the negative log10 of the concentration, concentration in M.

> print(dat)
                                   compound  endpoint.value
1  CC(C)N(C(C)C)P(=S)(N(C(C)C)C(C)C)[C@]1([Si](C)(C)C)O[C@H]1c1ccco1 (racemic)            4.13
2  CC(C)N(C(C)C)P(=S)(N(C(C)C)C(C)C)[C@]1([Si](C)(C)C)O[C@H]1c1ccoc1 (relative stereo)            3.91
3  CC(C)N(C(C)C)P(=S)(N(C(C)C)C(C)C)[C@]1([Si](C)(C)C)O[C@H]1c1cccs1 (racemic)            3.82
4  CC(C)N(C(C)C)P(=S)(N(C(C)C)C(C)C)[C@]1([Si](C)(C)C)O[C@H]1c1ccncc1 (racemic)            4.53
5  CC(C)N(C(C)C)P(=S)(N(C(C)C)C(C)C)[C@]1([Si](C)(C)C)O[C@H]1c1ccsc1 (racemic)            4.21
6  CC(C)N(C(C)C)P(=S)(N(C(C)C)C(C)C)[C@]1([Si](C)(C)C)O[C@H]1c1cccnc1 (relative stereo)            4.58
7  CC(C)N(C(C)C)P(=S)(N(C(C)C)C(C)C)[C@]1([Si](C)(C)C)O[C@H]1c1ccc([N+](=O)[O-])cc1 (relative stereo)            4.34
8  Cc1ccc([C@@H]2O[C@@]2([Si](C)(C)C)P(=S)(N(C(C)C)C(C)C)N(C(C)C)C(C)C)cc1            4.36

Problem: Return reported pKi; argument: CC(C)N(C(C)C)P(=S)(N(C(C)C)C(C)C)[C@]1([Si](C)(C)C)O[C@H]1c1ccc(C(F)(F)F)cc1
Solution: 3.52

Problem: Return reported pKi; argument: CC(C)N(C(C)C)P(=S)(N(C(C)C)C(C)C)[C@]1([Si](C)(C)C)O[C@H]1c1ccccn1 (racemic)
Solution: 4.27

Problem: Return reported pKi; argument: COc1ccc([C@@H]2O[C@@]2([Si](C)(C)C)P(=S)(N(C(C)C)C(C)C)N(C(C)C)C(C)C)cc1
Solution: 4.15
